Items are presented alongside their recorded Plasma glucose level, 30 min.
# target.or.system: sucrase (Rattus norvegicus)
# Construct: from tissue; host or cells: small intestine of live male Wistar rats (oral sugar load)
# measurement.notes: Sucrose administration experiment (inhibition of sucrase in vivo), plasma glucose
# test.settings: rats, sucrose 2 g/kg + test sugar 200 mg/kg
Just the number please, in ab mg/dl, no unit attached.

Some molecules with recorded Plasma glucose level, 30 min:
1. O=C(CO)[C@H](O)[C@H](O)[C@H](O)CO [D-psicose]: 128
2. O=C[C@H](O)[C@@H](O)[C@@H](O)CO [L-arabinose]: 139

Challenge: Query the reported Plasma glucose level, 30 min for sucrase (Rattus norvegicus); item: O=C(CO)[C@@H](O)[C@H](O)[C@H](O)CO [D-fructose]
Response given: 134

----------
# Tested on: Male Wistar rats
# measurement.notes: Soluble starch administration experiment, plasma glucose
# Type: in vivo, rat
# test.settings: before soluble starch 2 g/kg + test sugar 200 mg/kg
observable: Plasma glucose level, 0 min (mg/dL)
Kindly answer with a numeric value in mg/dL, unit omitted.

Here is how some compounds turned out for Plasma glucose level, 0 min.
1. O=C(CO)[C@@H](O)[C@H](O)[C@H](O)CO: 92
2. O=C[C@H](O)[C@@H](O)[C@H](O)CO: 99
3. O=C[C@H](O)[C@@H](O)[C@@H](O)CO: 97

# next compound below
Challenge: Data request, read-out Plasma glucose level, 0 min, for O=C(CO)[C@H](O)[C@H](O)[C@H](O)CO
Response given: 91

----------
# target.or.system: sucrase (Rattus norvegicus)
# Construct: from tissue; host or cells: small intestine of live male Wistar rats (oral sugar load)
# measurement.notes: Sucrose administration experiment (inhibition of sucrase in vivo), plasma glucose
# test.settings: rats, sucrose 2 g/kg + test sugar 200 mg/kg
observable: Plasma glucose level, 90 min (ab mg/dl)
# number only, unit ab mg/dl dropped from output

1) O=C[C@H](O)[C@@H](O)[C@@H](O)CO: 139

Challenge: Which Plasma glucose level, 90 min reading was recorded for the compound O=C(CO)[C@@H](O)[C@H](O)[C@H](O)CO ?
Response given: 147

----------
# target.or.system: sucrase (Rattus norvegicus, UniProt P23739)
# Construct: from tissue; host or cells: small intestine of live male Wistar rats (oral sugar load)
# Sequence (P23739 whole entry): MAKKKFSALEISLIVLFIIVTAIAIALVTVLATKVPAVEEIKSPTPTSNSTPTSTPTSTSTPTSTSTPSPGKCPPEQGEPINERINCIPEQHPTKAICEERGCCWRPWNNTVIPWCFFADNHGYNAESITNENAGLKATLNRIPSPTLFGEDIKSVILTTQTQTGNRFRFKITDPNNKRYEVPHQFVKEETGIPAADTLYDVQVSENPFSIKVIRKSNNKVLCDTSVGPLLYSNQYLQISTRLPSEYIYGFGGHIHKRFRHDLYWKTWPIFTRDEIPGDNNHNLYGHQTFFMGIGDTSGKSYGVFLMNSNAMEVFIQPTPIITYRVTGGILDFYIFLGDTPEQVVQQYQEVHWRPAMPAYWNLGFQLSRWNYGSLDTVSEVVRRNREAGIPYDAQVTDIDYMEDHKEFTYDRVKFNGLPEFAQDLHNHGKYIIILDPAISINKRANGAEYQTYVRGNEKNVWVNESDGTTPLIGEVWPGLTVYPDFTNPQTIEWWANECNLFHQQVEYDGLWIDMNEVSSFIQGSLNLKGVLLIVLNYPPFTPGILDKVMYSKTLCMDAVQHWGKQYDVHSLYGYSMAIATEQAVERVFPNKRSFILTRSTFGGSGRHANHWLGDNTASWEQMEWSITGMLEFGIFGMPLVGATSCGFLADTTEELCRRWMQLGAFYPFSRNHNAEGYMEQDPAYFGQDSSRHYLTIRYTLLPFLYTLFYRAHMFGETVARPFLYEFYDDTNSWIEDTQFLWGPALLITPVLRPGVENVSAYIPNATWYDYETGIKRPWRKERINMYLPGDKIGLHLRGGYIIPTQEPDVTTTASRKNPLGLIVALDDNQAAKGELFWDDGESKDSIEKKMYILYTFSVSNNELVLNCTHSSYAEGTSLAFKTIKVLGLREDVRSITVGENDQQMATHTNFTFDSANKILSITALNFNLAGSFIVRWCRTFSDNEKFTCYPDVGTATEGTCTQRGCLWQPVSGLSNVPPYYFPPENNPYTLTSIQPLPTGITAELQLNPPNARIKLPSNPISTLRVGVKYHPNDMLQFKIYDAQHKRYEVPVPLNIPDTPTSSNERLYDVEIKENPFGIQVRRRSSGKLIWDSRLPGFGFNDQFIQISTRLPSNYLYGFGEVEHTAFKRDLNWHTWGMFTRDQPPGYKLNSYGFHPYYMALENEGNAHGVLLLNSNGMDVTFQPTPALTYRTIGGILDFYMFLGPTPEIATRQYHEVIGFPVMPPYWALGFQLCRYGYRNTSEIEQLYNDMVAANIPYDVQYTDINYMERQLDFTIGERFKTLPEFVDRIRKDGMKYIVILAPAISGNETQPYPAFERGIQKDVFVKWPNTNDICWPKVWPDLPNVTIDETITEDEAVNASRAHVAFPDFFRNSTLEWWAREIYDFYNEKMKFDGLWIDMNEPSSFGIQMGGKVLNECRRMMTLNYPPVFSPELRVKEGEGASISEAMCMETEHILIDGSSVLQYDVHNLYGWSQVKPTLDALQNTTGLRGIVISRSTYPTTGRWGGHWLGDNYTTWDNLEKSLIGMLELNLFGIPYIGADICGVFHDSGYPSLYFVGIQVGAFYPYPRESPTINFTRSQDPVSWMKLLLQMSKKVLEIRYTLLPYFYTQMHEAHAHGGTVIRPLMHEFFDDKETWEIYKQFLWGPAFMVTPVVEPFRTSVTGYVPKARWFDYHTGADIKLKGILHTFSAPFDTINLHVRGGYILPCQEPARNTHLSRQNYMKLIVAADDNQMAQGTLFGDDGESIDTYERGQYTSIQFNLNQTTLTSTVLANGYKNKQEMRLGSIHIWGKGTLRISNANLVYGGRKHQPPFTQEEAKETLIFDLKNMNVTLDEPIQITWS
# measurement.notes: Sucrose administration experiment (inhibition of sucrase in vivo), plasma glucose
# test.settings: rats, sucrose 2 g/kg + test sugar 200 mg/kg
observable: Plasma glucose level, 60 min (ab mg/dl)
Express the result in ab mg/dl but write the number alone.

1. O=C(CO)[C@@H](O)[C@H](O)[C@H](O)CO [D-fructose]: 148
2. O=C(CO)[C@H](O)[C@H](O)[C@H](O)CO [D-psicose]: 139

Next:
Challenge: Request body: readout Plasma glucose level, 60 min, system sucrase (Rattus norvegicus, UniProt P23739), query O=C[C@H](O)[C@@H](O)[C@@H](O)CO [L-arabinose] . Return the value.
Response given: 142

----------
Entries annotated with measured Plasma glucose level, 0 min
# target.or.system: sucrase (Rattus norvegicus)
# Construct: from tissue; host or cells: small intestine of live male Wistar rats (oral sugar load)
# measurement.notes: Sucrose administration experiment (inhibition of sucrase in vivo), plasma glucose
# test.settings: rats, before sucrose 2 g/kg + test sugar 200 mg/kg
Please state the figure in mg/dL; there is no need to write the unit.

Reference set, count: 3
1) O=C[C@H](O)[C@@H](O)[C@H](O)CO: 102
2) O=C(CO)[C@@H](O)[C@H](O)[C@H](O)CO: 97
3) O=C[C@H](O)[C@@H](O)[C@@H](O)CO: 93

Challenge: Fill in the blank: the reported Plasma glucose level, 0 min of O=C(CO)[C@H](O)[C@H](O)[C@H](O)CO is ____.
Response given: 89
